Test system: MCF7
Assay remarks: NCI tumour cell line growth inhibition, 48 h
Active and inactive are the calls of the source. No stated cut-off is given here; in the data, active = GI50 up to about 1.1 µM and inactive = higher.
As shown below, each of these compounds has a reported GI50 value.

>>> endpoint_result("Nc1nc(Cl)cc(NCC2(CO)CCCC2)n1")
"75.2 µM (inactive)"
>>> endpoint_result("O=C(O)CCSC(CC1(c2ccc(Cl)cc2)NC(=O)CCS1)c1ccccc1 (stereo unspecified)")
"3.87 µM (inactive)"
>>> endpoint_result("N#Cc1nc(/C=C/c2cccnc2)oc1N")
"> 100 µM (inactive)"
>>> endpoint_result("CCOc1cc(NC(C)=O)ccc1C(=O)NN1C(=O)C(Oc2ccccc2)C1c1ccccc1 (stereo unspecified)")
"15.1 µM (inactive)"
>>> endpoint_result("N#Cc1nc(C#N)c(NC(=O)c2ccccc2C(=O)O)[nH]1")
"> 100 µM (inactive)"

# compound "Cc1cc2c(cc1C)C(=O)/C(=C/c1ccccc1C(=O)O)C2" ; its GI50 = 50 µM (inactive)

----------
Test system: TK-10
Assay remarks: NCI tumour cell line growth inhibition, 48 h
Calls of active or inactive are those of the source. No stated cut-off is given here; in the data, active = GI50 up to about 1.1 µM and inactive = higher.
As shown below, each of these compounds has a reported GI50 value.

>>> endpoint_result("CC1(C)CC(=O)C(CCC(=O)/C=C/c2ccccc2)C(=O)C1")
"> 100 µM (inactive)"
>>> endpoint_result("COc1cc(C2S/C(=C/c3ccccc3)C(=O)N2c2ccccn2)cc(OC)c1OC (stereo unspecified)")
"45.7 µM (inactive)"
>>> endpoint_result("COc1ccc(O[C@H](COCc2ccccc2)C[C@@H]2COC(C)(C)O2)cc1")
"> 100 µM (inactive)"
>>> endpoint_result("Cc1c(C)c(C)c(CSC(=N)N)c(C)c1C")
"14.8 µM (inactive)"
>>> endpoint_result("NCc1cc(O)c(O)c(O)c1")
"> 100 µM (inactive)"
>>> endpoint_result("CC(C)NC1CCCCC2c3ccccc3C12O (stereo unspecified)")
"> 100 µM (inactive)"

Item "CN(C(=O)[C@@H](NC(=O)OC(C)(C)C)c1ccccc1)[C@H]1CCCC[C@@H]1N1CCCC1" was tested on TK-10; the reported GI50 is > 100 µM (inactive)

Item COC12OCCN(C)C1=CC(=O)C1=NNC(C)C12 (stereo unspecified) was tested on TK-10; the reported GI50 is > 100 µM (inactive)

Item O=C(/C=C/c1ccccc1)NC1C=Nc2ccc(Cl)cc2NC1=O (stereo unspecified) was tested on TK-10; the reported GI50 is 36 µM (inactive)

----------
Test system: OVCAR-4
Assay remarks: NCI tumour cell line growth inhibition, 48 h
Calls of active or inactive are those of the source. No stated cut-off is given here; in the data, active = GI50 up to about 1.1 µM and inactive = higher.
As shown below, each of these compounds has a reported GI50 value.

Reference set (3 entries):
>>> endpoint_result("COC(=O)C1CCC(=S)N1C(=O)OCc1ccccc1 (configuration not stated)")
"> 100 µM (inactive)"
>>> endpoint_result("COc1ccc(C2=NN(C(C)=O)c3nc4ccccc4nc3O2)cc1")
"11 µM (inactive)"
>>> endpoint_result("CC(=O)OC1C2CCC3C(C)(O)C4CC(O)C(C)(C)C4(O)C(O)CC13CC2(C)O (configuration not stated)")
"> 100 µM (inactive)"

# compound "Cc1ccc(S(=O)(=O)ON2C(=O)c3c(N)c(C#N)c(-c4ccccc4)c(-c4ccccc4)c3C2=O)cc1" ; its GI50 = 21.9 µM (inactive)

# compound "CCCCc1ccc(Nc2ncc3ncn(COCCO)c3n2)cc1" ; its GI50 = 41.1 µM (inactive)

# compound "CN(C)c1nc(Oc2nc(N(C)C)nc(N(C)C)n2)nc(N(C)C)n1" ; its GI50 = > 100 µM (inactive)

# compound O=C(Nc1nnc(-c2ccc(Cl)cc2)o1)C(SC(=S)N1CCOCC1)c1ccccc1 (configuration not stated) ; its GI50 = 20.2 µM (inactive)

# compound NC(CC1=CS(=O)(=O)c2ccc(Cl)cc21)C(=O)O (configuration not stated) ; its GI50 = > 100 µM (inactive)

# compound "COc1ccc(C(=O)C=C2NCCN2)cc1" ; its GI50 = > 100 µM (inactive)

# compound "COc1ccccc1/C=N/Nc1nnc2c3ccccc3c3ncccc3c2n1" ; its GI50 = 17.8 µM (inactive)

# compound "C#CC(O)(c1nc2ccccc2s1)c1nc2ccccc2s1" ; its GI50 = 25.8 µM (inactive)

# compound "O=C(Cn1nnc(-c2ccccc2)n1)N/N=C/c1cn(Cc2ccc(Cl)cc2Cl)c2ccccc12" ; its GI50 = > 100 µM (inactive)

The measured values listed here are drawn from ChEMBL document CHEMBL1201862.
